Entries and their measured pIC50 follow.
molecular target: Epidermal growth factor receptor (Homo sapiens, UniProt P00533); type: ADME, cell-based, Sf21
Sequence (P00533 whole entry): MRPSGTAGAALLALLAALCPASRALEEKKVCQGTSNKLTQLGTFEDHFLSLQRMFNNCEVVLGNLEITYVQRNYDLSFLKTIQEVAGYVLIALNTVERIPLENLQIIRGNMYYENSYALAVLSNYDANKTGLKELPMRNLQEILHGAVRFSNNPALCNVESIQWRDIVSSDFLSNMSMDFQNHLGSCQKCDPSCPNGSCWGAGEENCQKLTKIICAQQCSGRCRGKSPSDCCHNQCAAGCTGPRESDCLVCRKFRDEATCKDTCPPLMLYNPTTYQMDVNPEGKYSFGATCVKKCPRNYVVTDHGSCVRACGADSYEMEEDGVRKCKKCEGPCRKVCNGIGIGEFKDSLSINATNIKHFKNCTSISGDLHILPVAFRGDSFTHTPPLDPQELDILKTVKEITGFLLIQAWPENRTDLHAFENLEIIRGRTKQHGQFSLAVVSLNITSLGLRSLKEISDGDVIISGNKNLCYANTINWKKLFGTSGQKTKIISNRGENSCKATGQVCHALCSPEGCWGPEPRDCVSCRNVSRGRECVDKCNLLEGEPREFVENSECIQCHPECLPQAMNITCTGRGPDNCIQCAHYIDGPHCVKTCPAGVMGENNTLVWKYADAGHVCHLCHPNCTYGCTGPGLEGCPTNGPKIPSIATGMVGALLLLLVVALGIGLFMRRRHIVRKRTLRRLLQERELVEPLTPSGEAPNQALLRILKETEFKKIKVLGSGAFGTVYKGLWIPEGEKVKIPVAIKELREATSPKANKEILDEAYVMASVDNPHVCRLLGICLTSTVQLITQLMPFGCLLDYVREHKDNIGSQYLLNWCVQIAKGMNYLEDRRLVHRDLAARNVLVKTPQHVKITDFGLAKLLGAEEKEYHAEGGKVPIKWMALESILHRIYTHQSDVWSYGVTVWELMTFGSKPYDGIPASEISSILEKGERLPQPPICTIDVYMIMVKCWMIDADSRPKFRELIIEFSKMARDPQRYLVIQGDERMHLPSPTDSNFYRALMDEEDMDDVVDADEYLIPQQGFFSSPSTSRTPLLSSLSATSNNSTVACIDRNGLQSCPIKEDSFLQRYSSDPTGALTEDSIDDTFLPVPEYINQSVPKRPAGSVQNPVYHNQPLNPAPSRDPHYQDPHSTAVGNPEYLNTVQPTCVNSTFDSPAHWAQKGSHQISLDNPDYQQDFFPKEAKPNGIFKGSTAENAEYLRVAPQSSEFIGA
Description: Inhibition of human N-terminal GST-tagged EGFR kinase domain (696 to end residues) expressed in baculovirus infected sf21 cells using poly(Glu, Tyr) 4:1 as substrate
Convention used: pIC50 is expressed as -log10 of the molar concentration.

query.smiles: C=CC(=O)Nc1cc2c(Nc3ccc(F)c(Cl)c3)ncnc2cc1OCc1cn(-c2ccccc2)nn1
experimental.system: Epidermal growth factor receptor (Homo sapiens, UniProt P00533)
pIC50: 7.13
--
query.smiles: C=CC(=O)Nc1cc2c(Nc3ccc(F)c(Cl)c3)ncnc2cc1OCc1cn(CCc2ccccc2)nn1
experimental.system: Epidermal growth factor receptor (Homo sapiens, UniProt P00533)
pIC50: 7.39
--
query.smiles: C=CC(=O)Nc1cc2c(Nc3ccc(F)c(Cl)c3)ncnc2cc1OCc1cn(Cc2ccc(F)cc2)nn1
experimental.system: Epidermal growth factor receptor (Homo sapiens, UniProt P00533)
pIC50: 7.35
--
query.smiles: C=CC(=O)Nc1cc2c(Nc3ccc(F)c(Cl)c3)ncnc2cc1OCc1cn(Cc2ccccc2F)nn1
experimental.system: Epidermal growth factor receptor (Homo sapiens, UniProt P00533)
pIC50: 7.19
--
query.smiles: C=CC(=O)Nc1cc2c(Nc3ccc(F)c(Cl)c3)ncnc2cc1OCc1cn(Cc2ccc(Cl)cc2)nn1
experimental.system: Epidermal growth factor receptor (Homo sapiens, UniProt P00533)
pIC50: 7.21

Q: Field request: pIC50 | item: "C=CC(=O)Nc1cc2c(Nc3ccc(F)c(Cl)c3)ncnc2cc1OCc1cn(Cc2ccc(OC)cc2)nn1"
Ans: 7.39
